Reference for the values: patent US20260285880A1

# Measured target: Flpin-293-PDE4B2 cells (Homo sapiens)
# Sequence (Q07343 1-564 isoform Q07343-2): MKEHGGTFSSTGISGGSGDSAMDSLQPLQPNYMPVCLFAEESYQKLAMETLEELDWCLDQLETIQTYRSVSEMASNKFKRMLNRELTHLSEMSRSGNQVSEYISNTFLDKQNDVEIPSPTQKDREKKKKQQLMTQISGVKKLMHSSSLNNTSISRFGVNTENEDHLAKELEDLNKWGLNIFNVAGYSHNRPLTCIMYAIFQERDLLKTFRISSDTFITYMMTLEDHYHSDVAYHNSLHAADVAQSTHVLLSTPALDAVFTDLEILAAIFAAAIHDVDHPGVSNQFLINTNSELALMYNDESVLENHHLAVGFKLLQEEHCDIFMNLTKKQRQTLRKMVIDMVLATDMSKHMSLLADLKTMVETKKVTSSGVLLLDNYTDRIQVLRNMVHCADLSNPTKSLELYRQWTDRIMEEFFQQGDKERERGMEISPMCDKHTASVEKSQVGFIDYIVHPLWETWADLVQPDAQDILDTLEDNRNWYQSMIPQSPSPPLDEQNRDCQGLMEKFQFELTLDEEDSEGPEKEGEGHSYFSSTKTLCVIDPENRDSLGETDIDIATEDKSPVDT
# Method: cell-based
# Condition info: read-out: Cell Inhibition % @10 nM, 10 nM, Flpin-293-PDE4B2 cells
Decide by inhibition at 0.01 µM: equal to or exceeding 50% means Yes, less means No.

>>> answer_label("NC(=O)Nc1ccc(Nc2nc(N3CCc4cc(Cl)ccc4C3)nc3c2[S+]([O-])CC3)cc1 (centres unmarked) [Compound 137]")
"No"
>>> answer_label("[O-][S+]1CCc2nc(N3CCc4cc(N5CC6CC5C6)ccc4C3)nc(NC3(CO)CCC3)c21 (centres unmarked) [Compound 177]")
"Yes"
>>> answer_label("Cn1cc(CNc2nc(N3CCc4cc(N5CCCC5)ccc4C3)nc3c2[S+]([O-])CC3)cn1 (centres unmarked) [Compound 190]")
"No"
>>> answer_label("CO[C@@H]1CCN(c2ccc3c(c2)CCN(c2nc4c(c(NC5(CO)CCC5)n2)[S+]([O-])CC4)C3)C1 (some centres unmarked) [Compound 152]")
"Yes"
>>> answer_label("[O-][S+]1CCc2nc(N3CCc4sc(Br)cc4C3)nc(NC3(CO)CCC3)c21 (centres unmarked) [Compound 55]")
"Yes"
>>> answer_label("[O-][S+]1CCc2nc(N3CCc4cccc(Cl)c4C3)nc(NC3(CO)CCC3)c21 (centres unmarked) [Compound 21]")
"No"
>>> answer_label("O=C(O)Cc1ccc(Nc2nc(N3CCc4cc(Cl)ccc4C3)nc3c2[S@@+]([O-])CC3)cc1 [Compound 128]")
"No"
>>> answer_label("[O-][S+]1CCc2nc(N3CC[C@@H]4c5cc(Cl)ccc5OC[C@H]4C3)nc(NC3(CO)CCC3)c21 (some centres unmarked) [Compound 108]")
"No"
>>> answer_label("[O-][S+]1CCc2nc(N3CCc4cc(N5CCC(C(F)(F)F)C5)ccc4C3)nc(NC3(CO)CCC3)c21 (centres unmarked) [Compound 156]")
"No"
>>> answer_label("[O-][S+]1CCc2nc(N3CCc4cc(N5CCCC5)ccc4C3)nc(Nc3cnn(CCO)c3)c21 (centres unmarked) [Compound 191]")
"No"

Inquiry: inhibition at 0.01 µM >= 50% for C[C@H]1c2ccc(N3CCCC3)cc2CCN1c1nc2c(c(NC3CCOCC3)n1)[S+]([O-])CC2 (some centres unmarked) [Compound 205] ?
Reply text: Yes

Inquiry: Can CC1(O)CCN(c2ccc3c(c2)CCN(c2nc4c(c(NC5(CO)CCC5)n2)[S+]([O-])CC4)C3)C1 (centres unmarked) [Compound 175] be said to have inhibition at 0.01 µM at or above 50%?
Reply text: Yes

Inquiry: Please indicate if the recorded inhibition at 0.01 µM for [O-][S+]1CCc2nc(N3CCc4cc(N5CCCC5)ccc4C3)nc(NC3(CO)CC3)c21 (centres unmarked) [Compound 186] meets or exceeds 50%.
Reply text: Yes

Inquiry: Form field: inhibition at 0.01 µM at least 50%? Entry: [O-][S+]1CCc2nc(N3CCc4cc(N5CCCC5)ncc4C3)nc(NC3(CO)CCC3)c21 (centres unmarked) [Compound 183]
Reply text: Yes

Inquiry: Has [O-][S+]1CCc2nc(N3CCc4cc(-c5cnco5)ccc4C3)nc(NC3(CO)CCC3)c21 (centres unmarked) [Compound 85] a recorded inhibition at 0.01 µM greater than or equal to 50%?
Reply text: Yes

Inquiry: Could you tell me if the measured inhibition at 0.01 µM of COc1nc2c(c3ccc(Cl)cc13)CCN(c1nc3c(c(NC4(CO)CCC4)n1)[S+]([O-])CC3)C2 (centres unmarked) [Compound 99] reaches 50% or more?
Reply text: No

Inquiry: Dear colleague, could you confirm whether [O-][S+]1CCc2nc(N3CCc4cc(N5CC[C@@H](CO)C5)ccc4C3)nc(NC3(CO)CCC3)c21 (some centres unmarked) [Compound 131] has inhibition at 0.01 µM at or above 50%?
Reply text: Yes
